- System: Mycobacterium tuberculosis
- ASSAY COMMENT: Antitubercular activity against rifampicin resistant Mycobacterium tuberculosis H37Rv ATCC 35838 after 24 hrs by MABA method
- Type: functional
- EXPERIMENTAL CONTEXT: H37Rv ATCC 35838, 24 h
Doc: threshold 0.4 µM (exclusive). Items with MIC90 beneath it return Condition met; others return Condition not met.

* NC(=O)c1c(COc2cccc(/C=N/NC(=O)c3ccncc3)c2)no[n+]1[O-] | Condition not met
* NC(=O)c1c(COc2ccccc2/C=N/NC(=O)c2ccncc2)no[n+]1[O-] | Condition not met

Consider the compound COc1c(N2C[C@@H]3CCCN[C@@H]3C2)c(F)cc2c(=O)c(C(=O)O)cn(C3CC3)c12 [MOXIFLOXACIN] . Is its MIC90 strictly less than 0.4 µM?
Condition met

// provenance: ChEMBL document CHEMBL4028867
